# test.target: PARP1 WT (UniProt P09874 1-1014)
# Sequence (P09874 whole entry): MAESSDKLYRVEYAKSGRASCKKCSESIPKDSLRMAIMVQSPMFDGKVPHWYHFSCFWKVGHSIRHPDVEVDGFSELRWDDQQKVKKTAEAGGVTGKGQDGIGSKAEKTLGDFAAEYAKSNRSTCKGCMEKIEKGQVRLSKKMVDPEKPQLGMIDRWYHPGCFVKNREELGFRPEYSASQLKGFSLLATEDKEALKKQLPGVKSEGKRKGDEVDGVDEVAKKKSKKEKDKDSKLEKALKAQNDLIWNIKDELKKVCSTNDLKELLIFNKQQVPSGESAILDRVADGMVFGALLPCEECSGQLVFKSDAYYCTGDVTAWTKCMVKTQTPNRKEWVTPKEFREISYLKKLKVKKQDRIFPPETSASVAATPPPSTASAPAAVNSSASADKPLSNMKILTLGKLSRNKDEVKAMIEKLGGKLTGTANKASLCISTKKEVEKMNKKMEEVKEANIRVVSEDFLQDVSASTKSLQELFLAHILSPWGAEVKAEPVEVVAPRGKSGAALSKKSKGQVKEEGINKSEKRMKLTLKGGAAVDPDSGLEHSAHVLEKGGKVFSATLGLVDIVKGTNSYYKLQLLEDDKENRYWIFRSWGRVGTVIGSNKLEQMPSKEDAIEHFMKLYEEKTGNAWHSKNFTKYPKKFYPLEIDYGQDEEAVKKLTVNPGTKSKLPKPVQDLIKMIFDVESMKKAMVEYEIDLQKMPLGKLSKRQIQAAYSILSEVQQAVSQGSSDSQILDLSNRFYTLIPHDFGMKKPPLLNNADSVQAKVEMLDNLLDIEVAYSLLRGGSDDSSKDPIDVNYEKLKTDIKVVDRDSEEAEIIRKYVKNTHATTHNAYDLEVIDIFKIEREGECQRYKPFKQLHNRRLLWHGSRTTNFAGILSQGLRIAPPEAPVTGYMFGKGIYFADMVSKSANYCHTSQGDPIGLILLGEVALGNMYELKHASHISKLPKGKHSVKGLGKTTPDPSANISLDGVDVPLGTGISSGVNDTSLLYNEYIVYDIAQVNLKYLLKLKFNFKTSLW
# protocol.description: fluorescence polarization
pKd: −log10 of the molar value.
measure.name: pKd

[[record]]
binder = "18-bp DNA duplex (dsDNA) DNA 1: GGGTTGCGGCCGCTTGGG DNA 2: CCCAAGCGGCCGCAACCC"
measure_name = "pKd"
reported_value = 7.09

